Answer each item with its documented IC50.
molecular target: CYP1A2 (Homo sapiens); construct: purchased BD Gentest, Becton-Dickinson (Supersomes); host or cells: insect cells (microsomes); test: Cytochrome P450 inhibition, CYP1A2; format: in vitro ADME; conditions: Supersomes; read-out: IC50 (μM) 1A2
Sequence (P05177 whole entry): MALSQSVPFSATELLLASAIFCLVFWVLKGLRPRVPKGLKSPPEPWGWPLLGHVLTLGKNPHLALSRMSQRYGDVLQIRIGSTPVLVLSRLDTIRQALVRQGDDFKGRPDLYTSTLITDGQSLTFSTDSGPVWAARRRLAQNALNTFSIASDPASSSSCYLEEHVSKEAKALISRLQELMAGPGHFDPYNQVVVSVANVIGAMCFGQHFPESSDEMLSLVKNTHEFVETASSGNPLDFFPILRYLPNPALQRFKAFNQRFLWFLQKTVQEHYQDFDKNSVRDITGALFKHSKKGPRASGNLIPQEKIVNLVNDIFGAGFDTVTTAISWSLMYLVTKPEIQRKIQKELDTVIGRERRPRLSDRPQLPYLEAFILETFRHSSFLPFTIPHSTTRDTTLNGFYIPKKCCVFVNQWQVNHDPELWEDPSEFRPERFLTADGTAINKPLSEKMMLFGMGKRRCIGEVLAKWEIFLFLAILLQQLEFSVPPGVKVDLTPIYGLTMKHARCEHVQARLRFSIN

| compound | recorded-endpoint | result |
| --- | --- | --- |
| CCC[C@@H]1NC(=O)[C@@H](C(C)C)NC(=O)[C@@H](Cc2cccc(F)c2)N[C@@H](C)COc2ccccc2CCCNC1=O [Compound 551] | IC50 | > 100 µM |

For CCC[C@@H]1NC(=O)[C@@H](C(C)C)NC(=O)[C@@H](Cc2ccc(O)c(C(C)(C)C)c2)NCCOc2ccccc2CCCNC1=O [Compound 553] , what is its reported IC50?
> 100 µM

* * *

Answer each item with its documented Papp B to A.
system: Caco-2 cells; test: Caco-2 permeability; format: in vitro ADME, human; details: 10 μM, basolateral to apical, 60 min, 37° C.
Answers are plain numbers, in cm/sec × 10^−6.

// input: 6 compounds below; output: Papp B to A for each
1. CC(C)[C@H]1NC(=O)[C@@H](Cc2cccc(Cl)c2)NCCOc2ccccc2C(C)(C)CCNC(=O)[C@H](CC2CC2)NC1=O
2. CC(C)[C@H]1NC(=O)[C@@H](Cc2cccc(F)c2)N[C@@H](C)COc2ccccc2CCCNC(=O)[C@H](CC2CC2)NC1=O
3. CNC[C@@H]1NC(=O)[C@@H](C(C)C)NC(=O)[C@@H](Cc2cccc(Cl)c2)NCCOc2ccccc2CCCNC1=O
4. CC(C)[C@H]1NC(=O)[C@@H](Cc2cccc(F)c2)NCCOc2ccccc2C[C@H](C)CNC(=O)[C@H](CN(C)C)NC1=O
5. CC(C)[C@H]1NC(=O)[C@@H](Cc2cccc(C(F)(F)F)c2)NCCOc2ccccc2CCCNC(=O)[C@H](CN(C)C)NC1=O
6. CC(C)[C@H]1NC(=O)[C@@H](Cc2ccc(Cl)cc2)NCCOc2ccccc2CCCNC(=O)[C@H](CN(C)C)NC1=O

11
18
11
9
11
7

* * *

Assay: Oral bioavailability in rat of representative formulations of compound 552
Type: in vivo
Conditions: plasma, po, 8 mg/kg, oral 8 mg/kg, 5% HP-β-CD in water
Experimental: The pharmacokinetic behavior of compound of the invention can be ascertained by methods well known to those skilled in the art. […] The pharmacokinetic parameters of representative formulations are determined through established methods known to those skilled-in the art as previously referenced in Method 3-I. Results with representative formulations for a representative compound of the present invention are shown below.
recorded-endpoint: AUC(0-inf) (ng·h/mL)
Numbers only, in ng·h/mL.

For CCC[C@@H]1NC(=O)[C@@H](C(C)C)NC(=O)[C@@H](Cc2ccc(O)c(Cl)c2)N[C@@H](C)COc2ccccc2CCCNC1=O [Compound 552] , what is its reported AUC(0-inf)?
255

* * *

assay: Plasma concentrations of compound 552 in beagle dogs during the CID study; assay type: in vivo; settings: male, dog, iv, 2.5 mg/kg, low dose group 2.5 mg/kg/occasion, first day, read-out: average AUC0-t (converted)
recorded-endpoint: AUC(0-t) (ng·h/mL)
Give bare numbers, in ng·h/mL.

For CCC[C@@H]1NC(=O)[C@@H](C(C)C)NC(=O)[C@@H](Cc2ccc(O)c(Cl)c2)N[C@@H](C)COc2ccccc2CCCNC1=O , what is its reported AUC(0-t)?
1300
